Assay: log P by HPLC on reversed phase columns (Method L0; [a] acidic, [b] neutral range)
Listed here: items and their measured chromatographic logP.
recorded.metric: chromatographic logP

- Cc1ccccc1-c1c(C)nn2c(N3CCOCC3)c(C(=O)N[C@H]3CCOc4ccccc43)cnc12: 4.18
- Cc1nn2c(C3CC3)c(C(=O)N[C@H]3CCOc4ccccc43)cnc2c1-c1cccc(F)c1F: 3.61
- Cc1nn2c(C(C)C)c(C(=O)N[C@H]3CCc4ccccc43)cnc2c1-c1ccc(N(C)C)cc1: 3.91
- CNc1ccc(-c2c(C)nn3c(C(C)C)c(C(=O)N[C@H]4CCc5ccccc54)cnc23)cc1: 3.32
- Cc1nn2c(C)c(C(=O)N[C@H]3CCc4ccccc43)cnc2c1-c1cc(Cl)cc(Cl)c1: 4.96
- COCc1ccc(-c2c(C)nn3c(C(C)C)c(C(=O)N[C@H]4CCc5ccccc54)cnc23)cc1: 4.41
- Cc1nn2c(C(C)C)c(C(=O)N[C@H]3CCOc4ccccc43)cnc2c1-c1cccc(Cl)n1: 4.85
- CC(C)c1c(C(=O)N[C@H]2CCc3ccccc32)cnc2c(-c3cccc(OC(F)(F)F)c3)c(C(F)F)nn12: 5.18
- Cc1nn2c(C3CC3)c(C(=O)N[C@H]3CCOc4ccccc43)cnc2c1-c1cc(Cl)cc(Cl)c1: 4.96
- Cc1nn2c(C(C)C)c(C(=O)N[C@H]3CCOc4ccccc43)cnc2c1-c1cc(Cl)cc(Cl)c1F: 5.36
- Cc1nn2c(C(C)C)c(C(=O)N[C@H]3CCc4ccccc43)cnc2c1-c1cccc(COCC(F)(F)F)c1: 4.99
- COc1cccc(-c2c(C)nn3c(C(C)C)c(C(=O)N[C@H]4CCc5ccccc54)cnc23)n1: 4.89
- Cc1nn2c(C(C)C)c(C(=O)N[C@H]3CCOc4ccccc43)cnc2c1-c1c(F)cccc1Cl: 4.44
- Cc1nn2cc(C(=O)N[C@H]3CCc4ccccc43)cnc2c1-c1ccccc1Cl: 3.52
- Cc1nn2c(C3CC3)c(C(=O)N[C@H]3CCc4ccccc43)cnc2c1-c1cccc(N2CC(F)(F)C2)c1: 4.16

* * *

System: Nippostrongylus brasiliensis
Test: In vitro assay 2: Nippostrongylus brasiliensis (NIPOBR), acetylcholine esterase readout
Settings: adult worms, 10 μg/ml (10 ppm), read-out: activity (reduction of AChE compared to negative control)
recorded.metric: inhibition at 10 µg/mL

* Cc1nn2c(C3CC3)c(C(=O)N[C@H]3CCOc4ccccc43)cnc2c1-c1c(Cl)cccc1Cl | > 80%
* Cc1nn2c(C(C)C)c(C(=O)N[C@H]3CCOc4ccccc43)cnc2c1-c1cccc(N(C)C)c1F | > 80%
* Cc1nn2c(C(C)C)c(C(=O)N[C@H]3CCOc4ccccc43)cnc2c1-c1c(F)cccc1F | > 80%
* Cc1nn2c(C(C)C)c(C(=O)N[C@H]3CCc4ccccc43)cnc2c1-c1ccc(F)c(C(F)(F)F)c1 | > 80%
* Cc1nn2c(C(C)C)c(C(=O)N[C@H]3CCOc4ccccc43)cnc2c1-c1cccc(N2CC(F)C2)c1 | > 80%
* Cc1nn2c(C(C)C)c(C(=O)N[C@H]3CCOc4ccccc43)cnc2c1-c1cc(Cl)cc(Cl)c1F | > 80%
* COc1cccc(-c2c(C)nn3c(C(C)C)c(C(=O)N[C@H]4CCOc5ccccc54)cnc23)c1F | > 80%
* Cc1nn2c(C(C)C)c(C(=O)N[C@H]3CCCc4ccccc43)cnc2c1-c1cc(Cl)c(F)c(Cl)c1 | > 80%
* Cc1nn2c(C(C)C)c(C(=O)N[C@H]3CCOc4ccccc43)cnc2c1-c1ccc(F)c2c1OCO2 | > 80%
* Cc1nn2c(C(C)C)c(C(=O)N[C@H]3CCOc4ccccc43)cnc2c1-c1cccc(Cl)c1F | > 80%
* Cc1nn2c(C(C)C)c(C(=O)N[C@H]3CCOc4ccccc43)cnc2c1-c1ncc(Cl)cc1Cl | > 80%
* Cc1nn2c(C(C)C)c(C(=O)N[C@H]3CCc4ccccc43)cnc2c1-c1cc(Cl)cc(Cl)c1F | > 80%
* COCc1cccc(-c2c(C)nn3c(C4CC4)c(C(=O)N[C@H]4CCOc5ccccc54)cnc23)c1 | > 80%
* Cc1nn2c(C(C)C)c(C(=O)N[C@H]3CCOc4ccccc43)cnc2c1-c1cccc(F)c1F | > 80%
* Cc1nn2c(C3CC3)c(C(=O)N[C@H]3CCc4ccccc43)cnc2c1-c1c(F)ccc(Cl)c1F | > 80%
* CCn1cc(-c2c(C)nn3c(C(C)C)c(C(=O)N[C@H]4CCc5ccccc54)cnc23)cn1 | > 80%

* * *

Assay: log P by HPLC on reversed phase columns (Method L0; [a] acidic, [b] neutral range)
recorded.metric: chromatographic logP

* Cc1nn2c(C(C)C)c(C(=O)N[C@H]3CCOc4ccccc43)cnc2c1-c1ccc2c(c1)OCO2 | 4.08
* Cc1nn2c(C(C)C)c(C(=O)N[C@H]3CCOc4ccccc43)cnc2c1-c1cccc(C(F)(F)F)c1 | 5.03
* CC(C)c1c(C(=O)N[C@H]2CCc3ccccc32)cnc2c(-c3c(F)cc(F)cc3F)c(C(F)(F)F)nn12 | 5.01
* Cc1nn2c(C(C)C)c(C(=O)N[C@H]3CCOc4ccccc43)cnc2c1-c1cccc(N2CC(F)(F)C2)c1 | 4.64
* Cc1nn2c(C3CC3)c(C(=O)N[C@H]3CCOc4ccccc43)cnc2c1-c1ccc(F)cc1Cl | 3.79
* Cc1nn2c(C3CC3)c(C(=O)N[C@H]3CCOc4ccccc43)cnc2c1-c1cccc(N2CC(F)(F)C2)c1 | 3.92
* Cc1nn2c(C(C)C)c(C(=O)N[C@H]3CCc4ccccc43)cnc2c1-c1cnn(CC(F)F)c1 | 3.49
* Cc1nn2c(C(C)C)c(C(=O)N[C@H]3CCCc4ccccc43)cnc2c1-c1cccc(C(F)F)c1 | 4.93
* CCS(=O)(=O)c1nn2c(C(C)C)c(C(=O)N[C@H]3CCc4ccccc43)cnc2c1-c1cc(Cl)cc(Cl)c1 | 4.62
* Cc1nn2c(C(C)C)c(C(=O)N[C@H]3CCc4ccccc43)cnc2c1-c1cccc(C(F)F)c1 | 4.67
* Cc1nn2c(C(C)C)c(C(=O)N[C@H]3CCCc4ccccc43)cnc2c1-c1cc(Cl)cc(Cl)c1 | 6.39
* Cc1nn2c(C3CC3)c(C(=O)N[C@H]3CCOc4ccccc43)cnc2c1-c1cc(Cl)cc(Cl)c1Cl | 4.8
* Cc1nn2c(C(C)C)c(C(=O)N[C@H]3CCc4ccccc43)cnc2c1-c1cccc(OC(C)C)c1 | 5.28
* COc1cc(Cl)cc(-c2c(C)nn3c(C(C)C)c(C(=O)N[C@H]4CCOc5ccccc54)cnc23)c1 | 4.96
* Cc1nn2c(C(C)C)c(C(=O)N[C@H]3CCOc4ccccc43)cnc2c1-c1c(Cl)ccc(F)c1F | 4.46
* Cc1nn2c(C(C)C)c(C(=O)N[C@H]3CCc4ccccc43)cnc2c1-c1cccc(Cl)c1Cl | 5.13
* Cc1nn2c(C(C)C)c(C(=O)N[C@H]3CCc4ccccc43)cnc2c1-c1cccc(N2CC(F)(F)C2)c1 | 4.89
* CCN(CC)Cc1cccc(-c2c(C)nn3c(C(C)C)c(C(=O)N[C@H]4CCc5ccccc54)cnc23)c1 | 2.12
* Cc1nn2c(C(C)C)c(C(=O)N[C@H]3CCc4ccccc43)cnc2c1-c1cccnc1 | 2.19
* Cc1nn2c(C3CC3)c(C(=O)N[C@H]3CCc4ccccc43)cnc2c1-c1cccc(N2CC(F)C2)c1 | 3.85
* Cc1nn2c(C(C)C)c(C(=O)N[C@H]3CCCc4ccccc43)cnc2c1-c1ccccc1 | 4.94
* COc1c(F)ccc(-c2c(C)nn3c(N4CCOCC4)c(C(=O)N[C@H]4CCOc5ccccc54)cnc23)c1F | 4.46
* Cc1nn2c(CC(C)C)c(C(=O)N[C@H]3CCc4ccccc43)cnc2c1-c1c(F)cccc1Cl | 4.82
* COc1ccc(-c2c(C)nn3c(C(C)C)c(C(=O)N[C@H]4CCOc5ccccc54)cnc23)cc1OC | 3.9
* Cc1nn2c(C(C)C)c(C(=O)N[C@H]3CCc4ccccc43)cnc2c1-c1ccc(F)c(C(F)(F)F)c1 | 5.36
* Cc1nn2c(C(C)C)c(C(=O)N[C@H]3CCc4ccccc43)cnc2c1-c1cc(F)cc(C(F)(F)F)c1 | 5.6
* CC(C)c1c(C(=O)N[C@H]2CCc3ccccc32)cnc2c(-c3c(F)cccc3F)c(C(F)(F)F)nn12 | 4.81
* CC(C)c1c(C(=O)N[C@H]2CCCc3ccccc32)cnc2c(-c3cccc(C(F)(F)F)c3)c(C(F)(F)F)nn12 | 5.8
* CCc1c(C(=O)N[C@H]2CCc3ccccc32)cnc2c(-c3cccc(C(F)(F)F)c3)c(C)nn12 | 4.86

* * *

Assay: log P by HPLC on reversed phase columns (Method L0; [a] acidic, [b] neutral range)
recorded.metric: chromatographic logP

• Cc1nn2c(C3CC3)c(C(=O)N[C@H]3CCOc4ccccc43)cnc2c1-c1cc(Cl)cc(C(F)(F)F)c1 [Example 465] = 5.11
• Cc1nn2c(C(C)C)c(C(=O)N[C@H]3CCc4ccccc43)cnc2c1-c1ccc(Cl)cc1Cl [Example 181] = 5.31
• CC(C)c1c(C(=O)N[C@H]2CCc3ccccc32)cnc2c(-c3cccc(C(F)(F)F)c3)c(Cl)nn12 [Example 70] = 5.55
• COCc1cccc(-c2c(C(F)(F)F)nn3c(C(C)C)c(C(=O)N[C@H]4CCc5ccccc54)cnc23)c1 [Example 144] = 4.87
• CC(C)c1c(C(=O)N[C@H]2CCOc3ccccc32)cnc2c(-c3c(F)cccc3F)c(C(F)(F)F)nn12 [Example 139] = 4.56
• CC(C)c1c(C(=O)N[C@H]2CCCc3ccccc32)cnc2c(-c3ccccc3Cl)c(C(F)(F)F)nn12 [Example 89] = 5.24
• CC(=O)Nc1cccc(-c2c(C)nn3c(C(C)C)c(C(=O)N[C@H]4CCc5ccccc54)cnc23)c1 [Example 298] = 3.3
• COc1cc(-c2c(C)nn3c(C4CC4)c(C(=O)N[C@H]4CCc5ccccc54)cnc23)cc(C(F)(F)F)c1 [Example 423] = 4.7
• Cc1nn2c(C3CC3)c(C(=O)N[C@H]3CCOc4ccccc43)cnc2c1-c1cc(F)ccc1F [Example 448] = 3.61
• Cc1nn2c(C(C)C)c(C(=O)N[C@H]3CCCc4ccccc43)cnc2c1-c1cc(Cl)cc(Cl)c1F [Example 265] = 6.01
• CC(C)c1c(C(=O)N[C@H]2CCc3ccccc32)cnc2c(-c3ccccc3Cl)c(C(F)(F)F)nn12 [Example 88] = 4.96
• Cc1nn2c(C(C)C)c(C(=O)N[C@H]3CCc4ccccc43)cnc2c1-c1cccc(CN2CCOCC2)c1 [Example 354] = 2.01
• Cc1nn2c(C3CC3)c(C(=O)N[C@H]3CCOc4ccccc43)cnc2c1-c1cc(F)cc(F)c1 [Example 537] = 3.99
• Cc1nn2c(C(C)C)c(C(=O)N[C@H]3CCc4ccccc43)cnc2c1-c1cc(F)cc(Cl)c1 [Example 324] = 5.49
• CCC(C)c1c(C(=O)N[C@H]2CCc3ccccc32)cnc2c(-c3c(F)cccc3Cl)c(C)nn12 (stereo partly drawn) [Example 222] = 4.98

The reported measurements were obtained from patent US11001590B2.
